All values here come from ChEMBL document CHEMBL1961873.

- Assayed target: Insulin receptor-related protein (Homo sapiens);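 further: each reported figure is the mean of the IRR inhibition readings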
- Test settings: at 1 µM
Record form. Attribute: inhibition. Fill in for each entry.
# answer = value followed by unit

-- ask Item Cn1cc(C=C2C(=O)Nc3cccnc32)c2ccccc21 with Insulin receptor-related protein (Homo sapiens) - inhibition?
-- reply 1.8%

-- ask Item [O-][S+]1CCN(Cc2ccc(-c3ccc4ncnc(Nc5ccc(OCc6ccccc6)c(F)c5)c4c3)o2)CC1 with Insulin receptor-related protein (Homo sapiens) - inhibition?
-- reply 2.32%

-- ask Item NC(=O)c1ccc(-c2nc(-c3ccccn3)c(-c3ccc4c(c3)OCO4)[nH]2)cc1 with Insulin receptor-related protein (Homo sapiens) - inhibition?
-- reply -0.59%

-- ask Item Cc1nn(C)c2cc(N(C)c3ccnc(Nc4cccc(S(N)(=O)=O)c4)n3)ccc12 with Insulin receptor-related protein (Homo sapiens) - inhibition?
-- reply 0.9%

-- ask Item NC(=O)c1cccc(Nc2nccc(Nc3cccc4[nH]ncc34)n2)c1 with Insulin receptor-related protein (Homo sapiens) - inhibition?
-- reply 0.93%

-- ask Item CC(=O)Nc1cccc(C#Cc2cncnc2Nc2ccc(OCc3cccc(F)c3)c(Cl)c2)n1 with Insulin receptor-related protein (Homo sapiens) - inhibition?
-- reply 0%

-- ask Item COc1cc2ncn(-c3cc(O[C@H](C)c4ccccc4Cl)c(C(N)=O)s3)c2cc1OC with Insulin receptor-related protein (Homo sapiens) - inhibition?
-- reply 2.98%

-- ask Item COc1cc2ncn(-c3cc(OCc4ccccc4Cl)c(C(N)=O)s3)c2cc1OC with Insulin receptor-related protein (Homo sapiens) - inhibition?
-- reply 0.06%

-- ask Item Cc1ccc(C(=O)NC2CCCCC2)cc1-c1ccc(C(=O)NCC2CC2)cc1 with Insulin receptor-related protein (Homo sapiens) - inhibition?
-- reply 2.14%

-- ask Item CN1CCC(C(=O)Nc2n[nH]c3nnc(-c4ccccc4)cc23)CC1 with Insulin receptor-related protein (Homo sapiens) - inhibition?
-- reply 2.13%

---

Record form. Attribute: inhibition. Fill in for each entry.
- Assayed target: Tyrosine-protein kinase Fyn (Homo sapiens) (UniProt P06241)
- Sequence (P06241 2-537 limits assumed): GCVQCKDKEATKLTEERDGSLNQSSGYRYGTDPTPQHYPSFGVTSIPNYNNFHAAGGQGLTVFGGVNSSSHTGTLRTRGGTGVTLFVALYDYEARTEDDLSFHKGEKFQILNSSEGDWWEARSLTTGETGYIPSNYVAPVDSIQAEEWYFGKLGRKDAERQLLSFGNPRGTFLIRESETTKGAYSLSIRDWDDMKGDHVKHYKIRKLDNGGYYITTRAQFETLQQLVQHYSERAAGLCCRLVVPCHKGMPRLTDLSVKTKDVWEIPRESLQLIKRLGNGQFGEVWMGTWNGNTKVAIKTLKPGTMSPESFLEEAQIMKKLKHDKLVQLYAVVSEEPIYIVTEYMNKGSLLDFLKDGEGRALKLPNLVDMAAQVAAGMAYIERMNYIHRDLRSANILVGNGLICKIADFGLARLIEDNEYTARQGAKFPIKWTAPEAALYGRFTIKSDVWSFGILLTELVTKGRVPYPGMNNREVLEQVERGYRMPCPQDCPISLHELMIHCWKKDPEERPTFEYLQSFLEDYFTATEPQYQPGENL
- Test settings: at 1 µM
- Description: GSK_PKIS: FYN mean inhibition at 1 uM [Nanosyn]
Output spec: scalar in %, unitless text.

-- ask Given CS(=O)(=O)CCNCc1nc(-c2ccc3ncnc(Nc4ccc(F)c(Cl)c4)c3c2)cs1 , state its recorded inhibition.
-- reply 3.55

-- ask Given CC(C)=Cc1cccc2c1/C(=N/Nc1ccc(S(N)(=O)=O)cc1)C(=O)N2 , state its recorded inhibition.
-- reply 27.3

-- ask Given CCn1c(-c2nonc2N)nc2cncc(C(=O)N3CC[C@H](N)C3)c21 , state its recorded inhibition.
-- reply 2.85

-- ask Given COc1cc2ncn(-c3cc(O[C@H](C)c4ccccc4Cl)c(C(N)=O)s3)c2cc1OC , state its recorded inhibition.
-- reply 8.81

-- ask Given CCn1c(-c2nonc2N)nc2ccncc21 , state its recorded inhibition.
-- reply -0.65

-- ask Given Fc1cccc(COc2ccc(Nc3ncnc4sc(-c5cccs5)cc34)cc2Cl)c1 , state its recorded inhibition.
-- reply 5.19

-- ask Given CCN1CCC(CC(=O)Nc2n[nH]c3nc(-c4cccs4)c(Br)cc23)CC1 , state its recorded inhibition.
-- reply -1.4

-- ask Given COc1ccc(-c2ccncc2)cc1C(N)=O , state its recorded inhibition.
-- reply 3.66

-- ask Given COc1cc2ncn(-c3cc(OCc4ccccc4Cl)c(C(N)=O)s3)c2cc1OC , state its recorded inhibition.
-- reply 23.5

-- ask Given CS(=O)(=O)CCNCc1ccc(-c2ccc3ncnc(Nc4ccc(OCc5cccc(F)c5)c(C(F)(F)F)c4)c3c2)o1 , state its recorded inhibition.
-- reply 2.37

-- ask Given CS(=O)(=O)Nc1ccc(N/C=C2\C(=O)Nc3ccccc32)cc1 , state its recorded inhibition.
-- reply 4.85

-- ask Given O=C1NC(=O)C(N2CCc3ccccc32)=C1c1ccc(Cl)cc1 , state its recorded inhibition.
-- reply 4.67

-- ask Given CCCN1CCC(Oc2cc(Nc3nc(Nc4cccc(F)c4C(N)=O)c4cc[nH]c4n3)c(OC)cc2Cl)CC1 , state its recorded inhibition.
-- reply 3.01

-- ask Given NCc1ccc(-c2nc(-c3ccc(Cl)c(O)c3)c(-c3ccncc3)[nH]2)cc1 , state its recorded inhibition.
-- reply 31.8

-- ask Given c1cnn2ncc(-c3ccnc(Nc4ccc5c(c4)OCCO5)n3)c2c1 , state its recorded inhibition.
-- reply 8.63

-- ask Given Cc1nnc(-c2ccc(C)c(-c3ccc(C(=O)Nc4cccc(C#N)c4)cc3)c2)o1 , state its recorded inhibition.
-- reply 3.47
